Attribute: normalized growth
# assayName: chemical genetic growth profiling, strain panel (AID 1159580);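 note: tested at 20 µM; growth read once vehicle control cultures reached saturation at 30 °C; 1 = growth at the plate median or of vehicle wells; lower values mean less growth of the strain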
# protocolConditions: S. cerevisiae deletion strains, growth OD, locus YJL115W, strain asf1, hits give low values
Out of some 5,500 compounds screened, about 2,000 (36%) were called active. About 18% were inconclusive and are not listed. This is one part of the list.
// response body must contain only the number

// solved cases for normalized growth follow
| testSmiles | recordedMeasurement |
| --- | --- |
| COc1cc2c(c(OC)c1OC)-c1ccc(OC)c(=O)cc1[C@@H](NC(C)=O)CC2 | 1.02 |
| NCCCC[C@H](N[C@@H](CCc1ccccc1)C(=O)O)C(=O)N1CCC[C@H]1C(=O)O | 1.01 |
| C=C(CC)C(=O)c1ccc(OCC(=O)O)c(Cl)c1Cl | 1 |
| N[C@@H](Cc1ccc(O)c(O)c1)C(=O)O | 1 |

Read the next record carefully.
## Input Quick one: normalized growth for "O=C(O)C1=CCNCC1" ?
## Output 1.02

* * *

# assayName: chemical genetic growth profiling, strain panel (AID 1159580);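 note: tested at 20 µM; growth read once vehicle control cultures reached saturation at 30 °C; 1 = growth at the plate median or of vehicle wells; lower values mean less growth of the strain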
# protocolConditions: S. cerevisiae deletion strains, growth OD, locus YMR205C, strain PFK2, hits give low values
Out of some 5,500 compounds screened, about 2,000 (36%) were called active. Another 18% or so got no clear call; they are omitted. The list shows a part of the results.
Attribute: normalized growth

// solved cases for normalized growth follow
| compound | recordedMeasurement |
| --- | --- |
| COc1cccc(/C=C/C(=O)O)c1C(C)C | 0.937 (inactive) |
| CC(=O)Nc1ccc(S(=O)(=O)c2ccc(NC(C)=O)cc2)cc1 | 1.01 (inactive) |

Read the next record carefully.
## Input Quick one: normalized growth for CCCC(C)C1(CC)C(=O)N=C(S)NC1=O (stereo not drawn) ?
## Output 0.97 (inactive)

* * *

# assayName: chemical genetic growth profiling, strain panel (AID 1159580);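 note: tested at 20 µM; growth read once vehicle control cultures reached saturation at 30 °C; 1 = growth at the plate median or of vehicle wells; lower values mean less growth of the strain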
# protocolConditions: S. cerevisiae deletion strains, growth OD, locus YDR297W, strain sur2, hits give low values
The campaign covered roughly 5,500 compounds. About 2,000 (36%) were called active. Inconclusive results (about 18%) are left out. Some of the results follow.
Attribute: normalized growth

| compound | normalized growth |
| --- | --- |
| Nc1ccc(C(=O)NCC(=O)O)cc1 | 1.02 (inactive) |
| CC1(C)C(=O)C=C[C@@]2(C)C1=C(O)C(=O)[C@]1(C)C2CC[C@@]2(C)[C@H](c3ccoc3)C[C@H]3O[C@]321 (some centres undefined) | 0.869 (active) |
| O=[N+]([O-])c1cc([As](=O)(O)O)ccc1O | 0.971 (inactive) |

Read the next record carefully.
## Input Quick one: normalized growth for C=CC(C1=CC(=O)C(OC)=CC1=O)c1ccccc1 (centres undefined) ?
## Output 0.913 (active)

* * *

# assayName: chemical genetic growth profiling, strain panel (AID 1159580);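 note: tested at 20 µM; growth read once vehicle control cultures reached saturation at 30 °C; 1 = growth at the plate median or of vehicle wells; lower values mean less growth of the strain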
# protocolConditions: S. cerevisiae deletion strains, growth OD, locus YNL224C, strain SQS1, hits give low values
About 2,000 (36%) of roughly 5,500 compounds were called active. Inconclusive results (about 18%) are left out. This is one part of the list.
Attribute: normalized growth
// response body must contain only the number

| compound | normalized growth |
| --- | --- |
| CCN1CCc2nc(N)oc2CC1 | 0.995 |

## Input Quick one: normalized growth for CN(C)CCOC(C)(c1ccccc1)c1ccccn1 (stereo unspecified) ?
## Output 1

## Input Same question for "N=c1c[n+](N2CCOCC2)[n-]o1" please.
## Output 1.02
